Where these numbers come from: PubChem BioAssay AID2060509

Each record here notes measured viability, T/C.
Tested on: 485176-168-R4-J1-PDC spheroids with HUVEC/MSC, viability
measurement protocol: Anticancer human tumor 485176-168-R4-J1-PDC patient-derived pancreatic adenocarcinoma cell line growth inhibition [GQUAD]
settings: second compound 0.316 µM; first compound 3.16 µM; stronger effect = lower value

CC(=O)O[C@H]1C(=O)[C@@]2(C)[C@H]([C@H](OC(=O)c3ccccc3)[C@]3(O)C[C@H](OC(=O)[C@H](O)[C@@H](NC(=O)c4ccccc4)c4ccccc4)C(C)=C1C3(C)C)[C@]1(OC(C)=O)CO[C@@H]1C[C@@H]2O + Cc1cnc(CNC(=O)c2c(=O)c3ccc(N4CCCN(C)CC4)nc3n3c2sc2ccccc23)cn1    13.8%
CC1COCCN1c1cc(-c2ccnn2C)c2ccnc(-c3ccn[nH]3)c2n1 (stereo not given) + Cc1cnc(CNC(=O)c2c(=O)c3ccc(N4CCCN(C)CC4)nc3n3c2sc2ccccc23)cn1    10.6%
O=c1[nH]cc(F)c(=O)[nH]1 + Cc1[nH]c2ccc(F)cc2c1-c1nc2c3cccnc3c3ncccc3c2[nH]1    46.2%
CC(C)(O)C1CCC(Nc2ccc3ncc(-c4cccc(C(F)(F)F)c4)n3n2)CC1 (stereo not given) + Cc1cnc(CNC(=O)c2c(=O)c3ccc(N4CCCN(C)CC4)nc3n3c2sc2ccccc23)cn1    38.4%

Now for another entry.
## Input Which viability, T/C reading was recorded for the molecule CCCS(=O)(=O)Nc1ccc(F)c(C(=O)c2c[nH]c3ncc(-c4ccc(Cl)cc4)cc23)c1F + CN(C)c1ccc(Nc2c3ccc(NC(=O)CCN4CCCC4)cc3nc3cc(NC(=O)CCN4CCCC4)ccc23)cc1 ?
## Output 90.8%

----------
Tested on: 485176-168-R4-J1-PDC spheroids with HUVEC/MSC, viability
measurement protocol: Anticancer human tumor 485176-168-R4-J1-PDC cell line growth inhibition [GQUAD];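 note: spheroids exposed to compounds for seven days before readout; percent viability relative to DMSO vehicle control wells as 100%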
settings: second compound 0.0316 µM; first compound 1 µM; stronger effect = lower value
experimental endpoint: viability, T/C (%)
Please respond with the number in % and leave the unit unwritten.

CC(=O)O[C@H]1C(=O)[C@@]2(C)[C@H]([C@H](OC(=O)c3ccccc3)[C@]3(O)C[C@H](OC(=O)[C@H](O)[C@@H](NC(=O)c4ccccc4)c4ccccc4)C(C)=C1C3(C)C)[C@]1(OC(C)=O)CO[C@@H]1C[C@@H]2O + Cc1[nH]c2ccc(F)cc2c1-c1nc2c3cccnc3c3ncccc3c2[nH]1    10.7

## Input Find viability, T/C (485176-168-R4-J1-PDC spheroids with HUVEC/MSC, viability) for the entry COc1cccc2c1C(=O)c1c(O)c3c(c(O)c1C2=O)CC(O)(C(=O)CO)CC3OC1CC(N)C(O)C(C)O1 (stereo not given) + CN(C)c1ccc(Nc2c3ccc(NC(=O)CCN4CCCC4)cc3nc3cc(NC(=O)CCN4CCCC4)ccc23)cc1
## Output 15.4

## Input Find viability, T/C (485176-168-R4-J1-PDC spheroids with HUVEC/MSC, viability) for the entry C=CCn1c(=O)c2cnc(Nc3ccc(N4CCN(C)CC4)cc3)nc2n1-c1cccc(C(C)(C)O)n1 + CN(C)c1ccc(Nc2c3ccc(NC(=O)CCN4CCCC4)cc3nc3cc(NC(=O)CCN4CCCC4)ccc23)cc1
## Output 19.5

## Input Find viability, T/C (485176-168-R4-J1-PDC spheroids with HUVEC/MSC, viability) for the entry COc1cccc2c1C(=O)c1c(O)c3c(c(O)c1C2=O)CC(O)(C(=O)CO)CC3OC1CC(N)C(O)C(C)O1 (stereo not given) + Cc1[nH]c2ccc(F)cc2c1-c1nc2c3cccnc3c3ncccc3c2[nH]1
## Output 14.7

## Input Find viability, T/C (485176-168-R4-J1-PDC spheroids with HUVEC/MSC, viability) for the entry O=C(NO)c1cnc(N2CCN(S(=O)(=O)c3ccc4ccccc4c3)CC2)nc1 + CN(C)c1ccc(Nc2c3ccc(NC(=O)CCN4CCCC4)cc3nc3cc(NC(=O)CCN4CCCC4)ccc23)cc1
## Output 10.4

----------
System: 485176-168-R4-J1-PDC spheroids with HUVEC/MSC, viability
measurement protocol: Anticancer human tumor 485176-168-R4-J1-PDC cell line growth inhibition [GQUAD];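 note: spheroids exposed to compounds for seven days before readout; percent viability relative to DMSO vehicle control wells as 100%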
settings: second compound 0.0316 µM; first compound 1 µM; stronger effect = lower value
For each record, check the reported viability, T/C: if it is below 90% write 1.0, else write 0.0.

CC1COCCN1c1cc(C2(O)CC3CCC(C2)O3)c2cnn(-c3ccn[nH]3)c2n1 (stereo not given) + Cc1[nH]c2ccc(F)cc2c1-c1nc2c3cccnc3c3ncccc3c2[nH]1    1.0
C#Cc1c(F)ccc2cc(O)cc(-c3ncc4c(N5CC6CCC(C5)N6)nc(OCC56CCCN5CC(F)C6)nc4c3F)c12 (stereo not given) + CN(C)c1ccc(Nc2c3ccc(NC(=O)CCN4CCCC4)cc3nc3cc(NC(=O)CCN4CCCC4)ccc23)cc1    0.0
C=CC(=O)N1CCN(c2nc(=O)n(-c3c(C)ccnc3C(C)C)c3nc(-c4c(O)cccc4F)c(F)cc23)C(C)C1 (stereo not given) + Cc1cnc(CNC(=O)c2c(=O)c3ccc(N4CCCN(C)CC4)nc3n3c2sc2ccccc23)cn1    0.0

// switching to the query compound
## Input Find out if reported viability, T/C for C=CCn1c(=O)c2cnc(Nc3ccc(N4CCN(C)CC4)cc3)nc2n1-c1cccc(C(C)(C)O)n1 + Cc1cnc(CNC(=O)c2c(=O)c3ccc(N4CCCN(C)CC4)nc3n3c2sc2ccccc23)cn1 is less than 90%
## Output 1.0

----------
Each record here notes measured viability, T/C.
Test system: 485176-168-R4-J1-PDC spheroids with HUVEC/MSC, viability
measurement protocol: Anticancer human tumor 485176-168-R4-J1-PDC cell line growth inhibition [GQUAD];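 note: spheroids exposed to compounds for seven days before readout; percent viability relative to DMSO vehicle control wells as 100%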
settings: second compound 10 µM; first compound 0.0999 µM; stronger effect = lower value
Please respond with the number in % and leave the unit unwritten.

Reference set (4 entries):
Cn1ncnc1[C@H]1c2n[nH]c(=O)c3cc(F)cc(c23)N[C@@H]1c1ccc(F)cc1 + CN(C)c1ccc(Nc2c3ccc(NC(=O)CCN4CCCC4)cc3nc3cc(NC(=O)CCN4CCCC4)ccc23)cc1    99.5
Cc1[nH]c2ccccc2c1CCNCc1ccc(/C=C/C(=O)NO)cc1 + CN(C)c1ccc(Nc2c3ccc(NC(=O)CCN4CCCC4)cc3nc3cc(NC(=O)CCN4CCCC4)ccc23)cc1    58.3
Cn1ncnc1[C@H]1c2n[nH]c(=O)c3cc(F)cc(c23)N[C@@H]1c1ccc(F)cc1 + Cc1[nH]c2ccc(F)cc2c1-c1nc2c3cccnc3c3ncccc3c2[nH]1    91.7
Cn1ncnc1[C@H]1c2n[nH]c(=O)c3cc(F)cc(c23)N[C@@H]1c1ccc(F)cc1 + Cc1cnc(CNC(=O)c2c(=O)c3ccc(N4CCCN(C)CC4)nc3n3c2sc2ccccc23)cn1    38.1

## Input Which viability, T/C reading was recorded for the compound CC[C@@]1(O)C(=O)OCc2c1cc1n(c2=O)Cc2cc3c(CN(C)C)c(O)ccc3nc2-1 + Cc1[nH]c2ccc(F)cc2c1-c1nc2c3cccnc3c3ncccc3c2[nH]1 ?
## Output 58.2

----------
Tested on: 485176-168-R4-J1-PDC spheroids with HUVEC/MSC, viability
measurement protocol: Anticancer human tumor 485176-168-R4-J1-PDC cell line growth inhibition [GQUAD];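 note: spheroids exposed to compounds for seven days before readout; percent viability relative to DMSO vehicle control wells as 100%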
settings: second compound 0.316 µM; first compound 0.000999 µM; stronger effect = lower value
For each record, check the reported viability, T/C: if it is below 60% write Yes, else write No.

Observe how each entry below is paired with its result.
Cn1ncnc1[C@H]1c2n[nH]c(=O)c3cc(F)cc(c23)N[C@@H]1c1ccc(F)cc1 + Cc1cnc(CNC(=O)c2c(=O)c3ccc(N4CCCN(C)CC4)nc3n3c2sc2ccccc23)cn1    No
Cn1ncnc1[C@H]1c2n[nH]c(=O)c3cc(F)cc(c23)N[C@@H]1c1ccc(F)cc1 + Cc1[nH]c2ccc(F)cc2c1-c1nc2c3cccnc3c3ncccc3c2[nH]1    No
Cc1[nH]c2ccccc2c1CCNCc1ccc(/C=C/C(=O)NO)cc1 + CN(C)c1ccc(Nc2c3ccc(NC(=O)CCN4CCCC4)cc3nc3cc(NC(=O)CCN4CCCC4)ccc23)cc1    No
CCc1c2c(nc3ccc(O)cc13)-c1cc3c(c(=O)n1C2)COC(=O)[C@]3(O)CC + CN(C)c1ccc(Nc2c3ccc(NC(=O)CCN4CCCC4)cc3nc3cc(NC(=O)CCN4CCCC4)ccc23)cc1    No
Cc1[nH]c2ccccc2c1CCNCc1ccc(/C=C/C(=O)NO)cc1 + Cc1cnc(CNC(=O)c2c(=O)c3ccc(N4CCCN(C)CC4)nc3n3c2sc2ccccc23)cn1    No

// switching to the query compound
## Input Find out if reported viability, T/C for CCc1c2c(nc3ccc(O)cc13)-c1cc3c(c(=O)n1C2)COC(=O)[C@]3(O)CC + Cc1cnc(CNC(=O)c2c(=O)c3ccc(N4CCCN(C)CC4)nc3n3c2sc2ccccc23)cn1 is less than 60%
## Output Yes
